- Experiment description: NCI Yeast Anticancer Drug Screen. Data for the cln2 rad14 strain (AID 165);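 note: 0% = growth equal to vehicle treated cultures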
- Particulars: S. cerevisiae cln2 rad14 strain, at 5.0 µM (retest, dose inferred, filed as 0.5)
This is part of a sample that, as a whole, favours compounds with a hit. Of some 79,000 tested, about 15% had one in any assay. Activity calls are given as the source filed them. Cut-off read from the data, not from the text of the source: active = growth inhibition above about 70%; inactive = the rest.
Respond using exactly one of the listed classes: active, inactive

Ask: Which outcome did this test record for the molecule CCCCCCCn1ccnc1NCCCCCCCCCCNc1nccn1CCCCCCC ?
Reply: inactive

Ask: I would be grateful if you could indicate the recorded call for CC(O)CCc1nc2ccccc2[nH]1 (stereo unspecified) .
Reply: inactive

Ask: So what was the verdict on Cc1cc2nc3c(C)c4ccccc4c(C)n3c2cc1C in this test?
Reply: active

Ask: Which result was noted for this molecule in the test: COc1ccc(CN2CCCN(Cc3ccc(OC)cc3OC)C2c2cc(Br)ccc2O)c(OC)c1
Reply: inactive

Ask: Any idea what this test logged for Cc1cccc(NC(=S)N/N=C(/c2ccccc2)c2ccccn2)c1 ?
Reply: inactive

Ask: Recorded test outcome, item COc1ccc(C(=O)NCCN2CCN3Cc4[nH]c5ccccc5c4CC3C2)cc1 (stereo unspecified)
Reply: inactive

====

- Experiment description: NCI Yeast Anticancer Drug Screen. Data for the bub3 strain (AID 167)
- Particulars: S. cerevisiae bub3 mutant strain, at 50.0 µM, stronger effect = higher value
The panel holds about 79,000 compounds, 15% with a hit somewhere; the sample as a whole holds those more often.
Please provide measured growth inhibition for the entries that follow.
Your answer is read as %, so omit the unit and give the number.

Ask: Which growth inhibition is reported for this compound? CCCCC1(CC)COC(c2ccccc2OC)OC1 (stereo unspecified)
Reply: 76.5

Ask: Field request: growth inhibition | item: O=C(N/N=C/c1cc(Cl)cc(Cl)c1O)c1ccccc1
Reply: 71.6

Ask: Query (compound): O=C1CN(CCN2CCOCC2)CC(=O)N2Cc3ccccc3CN12 ; field requested: growth inhibition
Reply: 68.5

Ask: Param item = Nc1nnc(Cc2ccc(Br)cc2)o1 ; retrieve measured growth inhibition.
Reply: -13.8

Ask: Given Cc1cccc2c(Nc3ccc(NS(C)(=O)=O)cc3)c3ccccc3nc12 , state its recorded growth inhibition.
Reply: 24.6

Ask: Look at this compound and give its reported growth inhibition. O=C(O)CCCCCCCCC(=O)CCl
Reply: 99.5

Ask: Please report the recorded growth inhibition for CC(C)COP(=O)(OCC(C)C)C(NS(=O)(=O)c1ccccc1)(C(F)(F)F)C(F)(F)F .
Reply: -3.8

Ask: I'd like to know its growth inhibition. The compound in question is CCOC(CCCl)OCC
Reply: 2.35

Ask: Fill in the blank: the reported growth inhibition of Cc1cccc(NC(=S)N/N=C(/c2ccccc2)c2ccccn2)c1 is ____.
Reply: 77.4

Ask: Given the entry COc1cccc2c1C(=O)c1c(O)c3c(c(O)c1C2=O)CC(O)(C(C)=O)CC3OC1OC(COC(C)=O)C(OC(C)=O)C(OC(C)=O)C1OC(C)=O (stereo unspecified) , report its measured growth inhibition.
Reply: 98.9

Ask: Record request: growth inhibition value, item O=C(O)Cc1ccc2c(c1O)C(=O)c1ccccc1C2=O
Reply: 65.9

====

Provide the recorded growth inhibition for the entries that follow.
- Experiment description: NCI Yeast Anticancer Drug Screen. Data for the bub3 strain (AID 167)
- Particulars: S. cerevisiae bub3 mutant strain, at 50.0 µM, stronger effect = higher value
This is part of a sample that, as a whole, favours compounds with a hit. Of some 79,000 tested, about 15% had one in any assay. Where a SMILES comes first, the peptide text is derived from it. [ ]: non-standard residue; d: D form. The star is where a group is joined. Phe(4-NO2) = N[CH](Cc1ccc([N+](=O)[O-])cc1)C(=O)O; Phe(2-OMe) = COc1ccccc1C[CH](N)C(=O)O; Cbz = O=C(OCc1ccccc1)*; Boc = CC(C)(C)OC(=O)*; OBn = c1ccc(CO*)cc1
Unit % implied. Number only.

Ask: // query growth inhibition value for entry O/N=C1/C(=C/c2ccc(Cl)c(Cl)c2)CCCC1C(NO)c1ccc(Cl)c(Cl)c1 (configuration not stated)
Reply: 21.6

Ask: Report growth inhibition for CC12CCC3c4cc(O)ccc4CCC3C1CCC2O (configuration not stated) please.
Reply: 55.4

Ask: What value of measured growth inhibition is listed for CNC(=S)N/N=C(\C=N\NC(=S)NC)c1ccccc1 ?
Reply: 59.5

Ask: Requested read-out: growth inhibition. Entry: COC(=O)c1ccc(CCC2=CC(=O)C=CC2=O)cc1
Reply: 91.3

Ask: What does the data say about its growth inhibition? Entry: Cc1nc(N)sc1N=Nc1ccc(Cl)cc1Cl
Reply: 81.7

Ask: What measured growth inhibition goes with COc1cccc2c1C(=O)c1c(O)c3c(c(O)c1C2=O)CC(O)(C(=O)CO)CC3OC1CC(N)C(I)C(C)O1 (configuration not stated) ?
Reply: 83.8

Ask: Report growth inhibition for CC(C)OC(=S)SSSC(=S)OC(C)C please.
Reply: 99.7

Ask: Which measured growth inhibition value corresponds to COc1ccc(OC)c(/C=C/NC=O)c1 ?
Reply: -4.35

Ask: Entry under review: O=C(O)c1ccc(C(=O)c2ccccc2C(=O)O)cc1 . Reported growth inhibition?
Reply: 99.7

Ask: Consider the molecule shown here: O=C(NC(Cc1ccccc1)C(=O)O)c1ccncc1 (configuration not stated) What is its recorded growth inhibition?
Reply: 44.1

Ask: What growth inhibition value was documented for this molecule, C1=C(c2ccccc2)OC(c2ccccc2)=C[P+]1(c1ccccc1)c1ccccc1 ?
Reply: 93

Ask: Give its growth inhibition value. Item: OCCc1ccc(-n2cnc3c(Nc4ccc(Cl)cc4)ncnc32)cc1
Reply: 83.8

Ask: Item under review: COC(=O)C(Cc1ccccc1OC)NC(=O)C(CC(=O)OCc1ccccc1)NC(=O)OCc1ccccc1 (configuration not stated) (Cbz-Asp(OBn)-[Phe(2-OMe)]-OMe; configuration not given here) . Reported growth inhibition?
Reply: 87.8

Ask: For the molecule CN1CCC(/C=C/c2cccc3ccccc23)CN1 (configuration not stated) (tested in a mixture with another compound) , what growth inhibition is on record?
Reply: 35.9

Ask: May I ask what growth inhibition has been recorded for CC1/C(=N\O)CC(c2ccccc2)N(C)C1c1ccccc1 (configuration not stated) ?
Reply: 98

Ask: Requested read-out: growth inhibition. Entry: Nc1c(Cl)[nH]c(C(F)(F)F)nc1=S
Reply: -9.45

Ask: Given the entry O=C1C=CC(=O)c2c(O)c(N3CCC[C@@H]3CO)c(Cl)c(O)c21 , report its measured growth inhibition.
Reply: 72.2

Ask: For the molecule shown here, COc1ccc(-n2c3c(c4c(N)ncnc42)CCCC3)cc1 , give the reported growth inhibition.
Reply: -69.2

Ask: Requested read-out: growth inhibition. Entry: COc1ccc2ccccc2c1-c1c(O)ccc2ccccc12
Reply: 97.9

Ask: Consider the molecule Cc1cc(C)c(Cc2ccccc2O)cc1Cc1ccccc1O and give its measured growth inhibition.
Reply: 90.1

Ask: Bench note: what growth inhibition did CCOc1ccccc1C(=O)OCc1ccccc1 show?
Reply: 6.2

Ask: So what's the measured growth inhibition for this one? CCCn1cc2c(SC)nc(SC)nc2n1
Reply: 99.5

Ask: Find the recorded growth inhibition belonging to NS(=O)(=O)c1ccc(Nc2c3ccccc3nc3c(C(=O)NC(CO)(CO)CO)cccc23)cc1 and report it.
Reply: 12.9

Ask: Bench note: what growth inhibition did CCCCCCCCCC1OCC(C)O1 (configuration not stated) show?
Reply: 7.7

Ask: // query growth inhibition value for entry Fc1ccc(NC(=S)SCc2ccco2)cc1
Reply: 26.6

Ask: What value of growth inhibition has been recorded for this entry: COc1ccc(C(=O)C2C(=O)C(=O)OC2C2OC(=O)C(=O)C2C(=O)c2ccc(OC)cc2)cc1 (configuration not stated)
Reply: 3.05

Ask: Which measured growth inhibition value corresponds to C(=C\[n+]1ccc2ccccc2c1)/c1ccccc1 ?
Reply: 8

Ask: What does the record list as growth inhibition for C[N+]1(c2ccccc2)C=C(c2ccccc2)SC1=S (configuration not stated) ?
Reply: 54.8

Ask: Bench note: what growth inhibition did CCN(CC)CCCCSc1ccc([N+](=O)[O-])cc1[N+](=O)[O-] show?
Reply: 65.8

Ask: Which growth inhibition value belongs to CC(=O)[C@H]1CC[C@H]2[C@@H]3CC[C@H]4C[C@@H](N5CCOCC5)CC[C@]4(C)[C@H]3CC[C@]12C ?
Reply: 59.5

Ask: Which growth inhibition value is on record for CC(=O)[O-].O=C(N/N=C/c1ccccc1[O-])c1ccccc1.[Zn+2] ?
Reply: 0.3

Ask: Which growth inhibition is reported for this molecule? C#CCN1CCN(C(=S)N/N=C(\C)c2ccccn2)CC1
Reply: 99.3

Ask: If you can, please state the reported growth inhibition value of O=C1C(Cl)=C(Cl)C(=O)C2CC=CCC12 (configuration not stated) .
Reply: 99.5

Ask: For the molecule Cc1cc(C)cc([C@H](C)N=Cc2cc(Br)ccc2O)c1 , what growth inhibition is on record?
Reply: 95.2

Ask: Requested field: growth inhibition. Item: C[N+](C)([O-])CCC=C1c2ccccc2CCc2ccccc21
Reply: 73.5

Ask: Could you share which growth inhibition value was measured for CC12CC[C@@H](C(C)(C)O)C1[C@@H](O)CC1(C)C2CCC2[C@@]3(C)CC[C@H](O)C(C)(C)C3C(O)C[C@]21C (some centres not stated) ?
Reply: 91.8

Ask: Record request: growth inhibition value, item CNC(=O)CCC(NC(=O)OC(C)(C)C)C(=O)NC(Cc1ccc([N+](=O)[O-])cc1)C(=O)NCC(=O)NC (configuration not stated) (Boc-Glu(NHMe)-[Phe(4-NO2)]-Gly-NHMe; configuration not given here)
Reply: -1.9

Ask: Which measured growth inhibition value corresponds to COc1ccc2nc3cc(Cl)ccc3c(NCCC[N+](C)(C)CCCCCCCCCC[N+](C)(C)CCCNc3c4ccc(Cl)cc4nc4ccc(OC)cc34)c2c1 ?
Reply: 6.45

Ask: Quick check: growth inhibition of O=C(O)C(O)C(O)C(O)C(O)CO.[Ag] (configuration not stated) ?
Reply: 99.3

Ask: Which growth inhibition reading was recorded for the molecule Clc1cccc2c(-c3ccccc3)c3cccc(Cl)c3cc12 ?
Reply: 36.2

Ask: Look up growth inhibition: CCS/C(SC)=C(/c1ccccc1)[P+](c1ccccc1)(c1ccccc1)c1ccccc1
Reply: 91

Ask: Which growth inhibition value belongs to C=C1CCC[C@@]2(C)CC[C@@H](/C(C)=C\C=C\C(C)(C)O)C[C@H]12 ?
Reply: 91.7
